Some compounds, each annotated with its measured Mono.
Organism: Rattus norvegicus
Test: Open TG-GATES - Regimen: Daily Repeat
Type: toxicity, organism-based, Sprague-Dawley
Set-up: regimen Daily Repeat, gender Male, age 6 weeks
Conditions Used: in vivo, po, 1000 mg/kg, […], tissue Blood, route gavage, dose level High, time 7 day
Reply with just the number (in %).

// worked examples, Mono included
Compound | Observation Type | Value Observed
CCOc1ccc(NC(=O)CC(C)O)cc1 (stereo unspecified) [BUCETIN] | Mono | 3.4
NC(N)=Nc1nc(CSCCC(N)=NS(N)(=O)=O)cs1 [FAMOTIDINE] | Mono | 2.8
COc1ccc2[nH]c([S+]([O-])Cc3ncc(C)c(OC)c3C)nc2c1 (stereo unspecified) [OMEPRAZOLE] | Mono | 3.8
CC(C)OC(=O)C(C)(C)Oc1ccc(C(=O)c2ccc(Cl)cc2)cc1 [FENOFIBRATE] | Mono | 3.4
CCOC(=O)CCC(=O)O[C@H]1[C@H](O[C@@H]2[C@@H](C)[C@H](O[C@H]3C[C@@](C)(OC)[C@@H](O)[C@H](C)O3)[C@@H](C)C(=O)O[C@H](CC)[C@@](C)(O)[C@H](O)[C@@H](C)C(=O)[C@H](C)C[C@@]2(C)O)O[C@H](C)C[C@@H]1N(C)C [ERYTHROMYCIN ETHYLSUCCINATE] | Mono | 2.2

# evaluate next
// Input: COC1=CC(=O)C[C@@H](C)[C@]12Oc1c(Cl)c(OC)cc(OC)c1C2=O [GRISEOFULVIN] . Output its Mono only.
3
